# Tested on: KB
# test_details: Anticancer activity against human KB cells assessed as inhibition of cell growth
# Type: functional, cell-based
pIC50: −log10 of the molar value.
measurement_label: pIC50

Field: example entries. Status: answers known.
> print(dat)
                                   compound  measurement.label  meas.value
1  Nc1nc(-c2cccc(OS(=O)(=O)c3ccc(Cl)s3)c2)nc2c1c(=O)oc1ccccc12              pIC50        4.68
2  Nc1nc(-c2cccc(OS(=O)(=O)c3ccc(Br)s3)c2)nc2c1c(=O)oc1ccccc12              pIC50        4.44
3  Nc1nc(-c2cccc(OS(=O)(=O)c3ccc(C(F)(F)F)cc3)c2)nc2c1c(=O)oc1ccccc12              pIC50        5.13
4  Nc1nc(-c2cccc(OS(=O)(=O)c3ccccc3)c2)nc2c1c(=O)oc1ccccc12              pIC50        5.17

(a) Nc1nc(-c2cccc(OS(=O)(=O)c3cccs3)c2)nc2c1c(=O)oc1ccccc12
(b) COc1cccc2c1C(=O)c1c(O)c3c(c(O)c1C2=O)C[C@@](O)(C(=O)CO)C[C@@H]3O[C@H]1C[C@H](N)[C@H](O)[C@H](C)O1 [DOXORUBICIN]
(c) COc1ccc(S(=O)(=O)Oc2cccc(-c3nc(N)c4c(=O)oc5ccccc5c4n3)c2)cc1
(d) COC(=O)c1ccc(S(=O)(=O)Oc2cccc(-c3nc(N)c4c(=O)oc5ccccc5c4n3)c2)s1
Provide the items ranked by increasing pIC50. Answer by listing the labels in the order asked for. d, c, a, b

###

# target_system: Telomerase reverse transcriptase (Homo sapiens, UniProt O14746)
# Sequence (O14746 whole entry): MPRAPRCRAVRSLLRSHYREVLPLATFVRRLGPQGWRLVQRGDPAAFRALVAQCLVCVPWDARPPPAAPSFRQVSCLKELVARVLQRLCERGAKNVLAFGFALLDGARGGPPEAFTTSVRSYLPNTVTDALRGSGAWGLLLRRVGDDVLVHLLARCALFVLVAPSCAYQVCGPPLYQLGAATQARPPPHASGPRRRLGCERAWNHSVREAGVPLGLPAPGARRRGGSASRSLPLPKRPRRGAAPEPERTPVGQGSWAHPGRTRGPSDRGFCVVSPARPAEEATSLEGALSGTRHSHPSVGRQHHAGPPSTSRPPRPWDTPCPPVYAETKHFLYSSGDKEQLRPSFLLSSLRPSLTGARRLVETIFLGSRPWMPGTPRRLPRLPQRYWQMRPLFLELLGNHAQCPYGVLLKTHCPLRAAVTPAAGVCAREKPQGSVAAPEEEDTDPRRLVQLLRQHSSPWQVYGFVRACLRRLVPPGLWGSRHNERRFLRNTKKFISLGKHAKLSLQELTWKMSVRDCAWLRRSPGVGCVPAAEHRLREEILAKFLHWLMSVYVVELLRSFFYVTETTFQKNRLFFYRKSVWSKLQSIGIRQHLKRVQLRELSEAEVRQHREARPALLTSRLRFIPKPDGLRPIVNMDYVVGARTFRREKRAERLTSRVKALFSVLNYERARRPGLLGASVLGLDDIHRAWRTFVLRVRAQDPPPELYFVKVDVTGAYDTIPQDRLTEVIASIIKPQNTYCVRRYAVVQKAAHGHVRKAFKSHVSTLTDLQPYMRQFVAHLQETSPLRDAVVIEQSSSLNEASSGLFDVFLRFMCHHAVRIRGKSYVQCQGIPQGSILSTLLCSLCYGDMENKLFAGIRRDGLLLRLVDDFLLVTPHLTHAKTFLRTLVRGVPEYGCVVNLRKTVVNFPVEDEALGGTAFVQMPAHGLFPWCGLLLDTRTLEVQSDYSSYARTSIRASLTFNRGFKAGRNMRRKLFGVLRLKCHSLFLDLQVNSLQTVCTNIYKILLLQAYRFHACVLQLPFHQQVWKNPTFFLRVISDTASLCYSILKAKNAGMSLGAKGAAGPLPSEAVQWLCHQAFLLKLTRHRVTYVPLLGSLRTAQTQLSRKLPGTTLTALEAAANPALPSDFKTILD
# test_details: Inhibition of telomerase activity in human CNE-2 cells
measurement_label: IC50 (µM)

Field: example entries. Status: answers known.
> print(dat)
                                 cpd.smiles  measurement.unit  meas.value
1  COc1ccc(S(=O)(=O)Oc2cccc(-c3nc(N)c4c(=O)oc5ccccc5c4n3)c2)cc1OC                µM        6.32
2  CN(C)c1ccc(S(=O)(=O)Oc2cccc(-c3nc(N)c4c(=O)oc5ccccc5c4n3)c2)cc1                µM        0.82

(a) Nc1nc(-c2cccc(OS(=O)(=O)c3ccc([N+](=O)[O-])cc3)c2)nc2c1c(=O)oc1ccccc12
(b) Nc1nc(-c2cccc(OS(=O)(=O)c3ccccc3)c2)nc2c1c(=O)oc1ccccc12
(c) Nc1nc(-c2cccc(OS(=O)(=O)c3cccs3)c2)nc2c1c(=O)oc1ccccc12
(d) CS(=O)(=O)Oc1cccc(-c2nc(N)c3c(=O)oc4ccccc4c3n2)c1
List these items ordered by IC50, big to small. Answer by listing the labels in the order asked for. d, a, c, b
(d: 58.6 µM, a: 21.1 µM, c: 7.35 µM, b: 3.16 µM)
